Data credit: patent US6500845B1

For each record, write down the corresponding ED40 (dosage reducing serum IL-2 concentrations by 40%).
# Test system: IL-2 release in vivo (T-lymphocytes stimulated by staphylococcal enterotoxin B)
# Parameters: species or system Balb/c mice
# details: mouse, ip
Numbers only, in mg/kg i.p..

Answered cases to consult:
- molecule: "CC1(N2Cc3ccccc3C2=O)CCC(=O)NC1=O (single isomer, unassigned; (-)) [Example 3 (−) enantiomer]"
  reportedMeasurement: 297
- molecule: "CC1(N2Cc3ccccc3C2=O)CCC(=O)NC1=O (racemic) [Example 2]"
  reportedMeasurement: 112

Let us move to another entry and its ED40 (dosage reducing serum IL-2 concentrations by 40%).
Give me measured ED40 (dosage reducing serum IL-2 concentrations by 40%), please, for this molecule: O=C1CCC(N2C(=O)c3ccccc3C2=O)C(=O)N1 (centres unmarked) [Thalidomide, reference compound]
171
